# target-or-test-system: CYP3A2 (Rattus norvegicus, UniProt P05183)
# Sequence (P05183 whole entry): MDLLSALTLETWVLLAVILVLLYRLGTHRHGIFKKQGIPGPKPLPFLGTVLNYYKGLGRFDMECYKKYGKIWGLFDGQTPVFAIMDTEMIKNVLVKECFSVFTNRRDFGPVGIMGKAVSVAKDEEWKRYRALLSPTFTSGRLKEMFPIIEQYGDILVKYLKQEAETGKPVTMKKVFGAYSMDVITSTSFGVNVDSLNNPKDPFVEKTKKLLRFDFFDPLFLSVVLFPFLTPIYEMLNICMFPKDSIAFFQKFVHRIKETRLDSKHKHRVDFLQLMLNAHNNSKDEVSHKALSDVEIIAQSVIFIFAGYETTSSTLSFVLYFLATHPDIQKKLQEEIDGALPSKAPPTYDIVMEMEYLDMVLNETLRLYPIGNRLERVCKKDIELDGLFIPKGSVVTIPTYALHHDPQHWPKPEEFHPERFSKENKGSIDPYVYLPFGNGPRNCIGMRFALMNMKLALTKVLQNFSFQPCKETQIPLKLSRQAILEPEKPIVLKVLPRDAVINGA
# procedure-summary: CYP inhibition in rat liver microsomes, substrate cocktail, LC-MS/MS (midazolam)
# Assay type: in vitro ADME
# applied-conditions: pH 7.4, probe midazolam 2 μM, read-out: IC50 for RLM, CYP3A2 (table row CYP3A4)
# From the text: Positive controls (furafyline for CYP1A2, montelukast for CYP2C8, sulfaphenazole for CYP2C9, S-(+)-N-3-benzylnirvanol for CYP2C19, quinidine for CYP2D6, ketoconazole for CYP3A4) and specific substrates (phenacetin for CYP1A2, paclitaxel for CYP2C8, diclofenac for CYP2C9, S-mephenytoin for CYP2C19, dextromethorphan for CYP2D6, midazolam for CYP3A4) are consistent with our previous papers. […]
property-label: IC50 at 30 min

• O=C(O)[C@H]1O[C@@H](Oc2cc3oc(-c4ccc(O)cc4)cc(=O)c3c(O)c2O)[C@H](O)[C@@H](O)[C@@H]1O [scutellarin, Scutellarin] = > 100 µM

* * *

# Tested on: CYP2C79
# procedure-summary: CYP inhibition in rat liver microsomes, substrate cocktail, LC-MS/MS (S-mephenytoin)
# Assay type: in vitro ADME
# applied-conditions: pH 7.4, probe S-mephenytoin 200 μM, 95% CI in brackets, read-out: IC50 for RLM, CYP2C79 (table row CYP2C19)
property-label: IC50 at 30 min

• O=C(O)[C@H]1O[C@@H](Oc2cc3oc(-c4ccc(O)cc4)cc(=O)c3c(O)c2O)[C@H](O)[C@@H](O)[C@@H]1O = 85.6 µM

* * *

# target-or-test-system: CYP3A4 (Homo sapiens, UniProt P08684)
# Sequence (P08684 whole entry): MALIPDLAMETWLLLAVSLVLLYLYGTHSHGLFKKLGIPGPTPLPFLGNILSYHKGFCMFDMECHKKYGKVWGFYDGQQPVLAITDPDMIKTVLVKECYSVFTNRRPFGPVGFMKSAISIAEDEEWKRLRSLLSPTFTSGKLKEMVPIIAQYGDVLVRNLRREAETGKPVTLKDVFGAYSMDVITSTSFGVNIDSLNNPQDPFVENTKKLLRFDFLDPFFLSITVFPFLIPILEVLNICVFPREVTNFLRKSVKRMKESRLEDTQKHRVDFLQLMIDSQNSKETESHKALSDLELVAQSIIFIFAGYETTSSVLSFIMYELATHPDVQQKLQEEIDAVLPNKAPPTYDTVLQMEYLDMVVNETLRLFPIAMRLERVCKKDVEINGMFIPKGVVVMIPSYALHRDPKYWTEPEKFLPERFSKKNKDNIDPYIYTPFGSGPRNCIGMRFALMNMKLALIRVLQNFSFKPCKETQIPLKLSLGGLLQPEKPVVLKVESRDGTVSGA
pIC50: −log10 of the molar value.
property-label: pIC50

* O=C(O)[C@H]1O[C@@H](Oc2cc3oc(-c4ccc(O)cc4)cc(=O)c3c(O)c2O)[C@H](O)[C@@H](O)[C@@H]1O [scutellarin, Scutellarin] | < 4.00

* * *

# target-or-test-system: CYP2C11 (Rattus norvegicus)
# Sequence (P08683 whole entry): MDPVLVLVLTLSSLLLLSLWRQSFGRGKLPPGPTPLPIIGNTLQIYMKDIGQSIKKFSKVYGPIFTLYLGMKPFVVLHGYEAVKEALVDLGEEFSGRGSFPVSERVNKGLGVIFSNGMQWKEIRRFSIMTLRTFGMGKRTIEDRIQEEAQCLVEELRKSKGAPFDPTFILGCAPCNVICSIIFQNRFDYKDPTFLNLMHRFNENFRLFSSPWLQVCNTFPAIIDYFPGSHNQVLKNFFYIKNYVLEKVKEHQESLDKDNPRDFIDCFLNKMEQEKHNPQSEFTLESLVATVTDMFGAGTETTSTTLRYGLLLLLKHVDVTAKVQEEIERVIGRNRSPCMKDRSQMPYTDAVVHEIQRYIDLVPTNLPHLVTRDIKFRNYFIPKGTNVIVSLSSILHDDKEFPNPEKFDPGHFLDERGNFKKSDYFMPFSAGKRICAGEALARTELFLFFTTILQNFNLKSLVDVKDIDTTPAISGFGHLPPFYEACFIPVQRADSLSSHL
# procedure-summary: CYP inhibition in rat liver microsomes, substrate cocktail, LC-MS/MS (diclofenac)
# Type: in vitro ADME
# applied-conditions: pH 7.4, probe diclofenac 5 μM, read-out: IC50 for RLM, CYP2C11 (table row CYP2C9)
property-label: IC50 at 30 min

* O=C(O)[C@H]1O[C@@H](Oc2cc3oc(-c4ccc(O)cc4)cc(=O)c3c(O)c2O)[C@H](O)[C@@H](O)[C@@H]1O [scutellarin, Scutellarin] | > 100 µM

* * *

# target-or-test-system: CYP2D6 (Homo sapiens, UniProt P10635)
# Construct: Pooled human liver microsomes (HLM, LOT 32556) were purchased from BD Gentest Corporation; tissue BD Gentest Corporation LOT 32556; host or cells: pooled human liver microsomes
# Sequence (P10635 whole entry): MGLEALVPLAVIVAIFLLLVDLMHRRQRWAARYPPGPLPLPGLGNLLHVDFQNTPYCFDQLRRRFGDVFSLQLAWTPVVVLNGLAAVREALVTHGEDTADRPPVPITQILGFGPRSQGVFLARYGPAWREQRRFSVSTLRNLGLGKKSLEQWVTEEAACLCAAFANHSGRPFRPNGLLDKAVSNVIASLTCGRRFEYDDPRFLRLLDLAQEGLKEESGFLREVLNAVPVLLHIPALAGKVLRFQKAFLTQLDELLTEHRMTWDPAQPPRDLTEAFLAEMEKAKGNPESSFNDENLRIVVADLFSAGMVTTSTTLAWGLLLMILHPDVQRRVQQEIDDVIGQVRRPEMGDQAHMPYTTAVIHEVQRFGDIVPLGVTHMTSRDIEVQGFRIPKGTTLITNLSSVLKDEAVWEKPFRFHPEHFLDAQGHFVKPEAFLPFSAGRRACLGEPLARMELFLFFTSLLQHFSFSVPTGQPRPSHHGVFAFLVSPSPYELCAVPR
# procedure-summary: CYP inhibition in human liver microsomes, substrate cocktail, LC-MS/MS (dextromethorphan)
# Type: in vitro ADME
# applied-conditions: metabolite dextrorphan, read-out: IC50 for HLM, CYP2D6
property-label: IC50

• O=C(O)[C@H]1O[C@@H](Oc2cc3oc(-c4ccc(O)cc4)cc(=O)c3c(O)c2O)[C@H](O)[C@@H](O)[C@@H]1O = > 100 µM

* * *

# target-or-test-system: UniProt:P11712
# Sequence (P11712 whole entry): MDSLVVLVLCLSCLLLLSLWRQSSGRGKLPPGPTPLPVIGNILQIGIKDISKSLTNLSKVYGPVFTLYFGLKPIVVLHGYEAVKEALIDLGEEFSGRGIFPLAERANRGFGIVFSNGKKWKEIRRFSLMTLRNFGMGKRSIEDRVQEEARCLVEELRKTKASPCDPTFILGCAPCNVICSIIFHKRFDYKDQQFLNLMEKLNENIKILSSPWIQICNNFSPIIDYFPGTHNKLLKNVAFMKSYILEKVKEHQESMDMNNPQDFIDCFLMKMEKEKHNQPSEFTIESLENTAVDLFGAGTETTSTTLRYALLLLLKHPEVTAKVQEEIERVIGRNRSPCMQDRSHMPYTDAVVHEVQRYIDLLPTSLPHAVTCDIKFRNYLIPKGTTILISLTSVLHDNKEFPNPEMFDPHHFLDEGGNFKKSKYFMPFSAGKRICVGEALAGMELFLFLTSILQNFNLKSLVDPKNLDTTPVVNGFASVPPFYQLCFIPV
property-label: IC50

* O=C(O)[C@H]1O[C@@H](Oc2cc3oc(-c4ccc(O)cc4)cc(=O)c3c(O)c2O)[C@H](O)[C@@H](O)[C@@H]1O | > 100 µM
